# Tested on: Sarcoma-180
# method.notes: Antitumor activity against mouse Sarcoma 180 cells allografted in CD1 mouse at 100 mg/kg, ip qd administered shortly post implantation continued for 8 days relative to vehicle-treated control
# Type: functional, organism-based
# Parameters: dose 100 mg/kg
Activity calls are given as the source filed them. The calls are words filed in the database; no cut-off is given here.
property.name: Activity

[[record]]
item_smiles = "C[C@H]1O[C@@H](n2cc(F)c(=O)[nH]c2=O)[C@@H](O)[C@H]1O"
recorded_result = "inactive"

[[record]]
item_smiles = "C=C1O[C@@H](n2cc(F)c(=O)[nH]c2=O)[C@H](O)[C@@H]1O"
recorded_result = "inactive"

[[record]]
item_smiles = "C[C@@H]1O[C@@H](n2cc(F)c(=O)[nH]c2=O)[C@H](O)[C@@H]1O"
recorded_result = "inactive"

